Parameter: GI50. Scope: all listed entries.
# System: MV4:11 human cancer cell lines
# Method description: Anti-proliferative activity, CellTiter-Glo viability assay, 7 day protocol
# Format: cell-based
# Setup conditions: Homo sapiens, MV4-11, 168 h, MV4:11 cells, 7 day incubation, read-out: GI50 on cellular proliferation of MV4:11 human cancer cell lines
Assay metric: GI50 (nM)

Cc1cc([C@@H](NC(=O)c2cc(Cn3ccn(C)c3=N)cc(-c3ccc(F)cc3C(F)(F)F)n2)C2CC2)ccc1F: 950
Cc1cc([C@@H](NC(=O)c2cc(Cn3ccn(C)c3=N)cc(-c3ncc(F)cc3C)c2)C2CC2)ccc1F: 510
Cc1cc([C@@H](C)NC(=O)c2cc(Cn3ccn(C)c3=N)cc(-c3ccc(F)cc3C)c2)ccc1F: 780
CCn1cc(-c2cc(Cn3ccn(C4CC4)c3=N)cc(C(=O)N[C@H](c3ccc(Cl)c(Cl)c3)C3CC3)c2)c(C(F)(F)F)n1: 130
